- testedTarget: T1, human Y2 receptor (human, UniProt P49146 1-381)
- T1 construct: whole, on cells; used as membrane fraction of hY2R/CHO cells; also called human NPY2R; hY2R
- T1 sequence (looked up): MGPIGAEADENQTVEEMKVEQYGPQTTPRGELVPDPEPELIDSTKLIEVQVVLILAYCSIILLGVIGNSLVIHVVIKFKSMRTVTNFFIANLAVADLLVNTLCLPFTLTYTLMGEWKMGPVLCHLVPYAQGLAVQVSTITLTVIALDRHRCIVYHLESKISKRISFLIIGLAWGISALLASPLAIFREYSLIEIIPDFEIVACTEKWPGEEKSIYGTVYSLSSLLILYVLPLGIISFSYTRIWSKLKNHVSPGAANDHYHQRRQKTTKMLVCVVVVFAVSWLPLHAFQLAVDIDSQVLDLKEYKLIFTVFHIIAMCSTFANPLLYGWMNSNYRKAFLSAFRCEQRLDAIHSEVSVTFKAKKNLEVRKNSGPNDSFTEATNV
- assayInfo: RBA: [125I]-PYY displacement, hY2R/CHO membranes
Non-standard residues stand in square brackets, D forms with d. No end group written: not given here. 4Amb = NCc1ccc(C(=O)O)cc1
experimentalEndpoint: IC50 Ratio (vs PYY(3-36)) (ratio)

# binder, testResult
rows = [
    ("[4Amb]RAYINGITRQRY-NH2 (N-terminus assumed; SMILES CC[C@H](C)[C@H](NC(=O)CNC(=O)[C@H](CC(N)=O)NC(=O)[C@@H](NC(=O)[C@H](Cc1ccc(O)cc1)NC(=O)[C@H](C)NC(=O)[C@H](CCCNC(=N)N)NC(=O)c1ccc(CN)cc1)[C@@H](C)CC)C(=O)N[C@H](C(=O)N[C@@H](CCCNC(=N)N)C(=O)N[C@@H](CCC(N)=O)C(=O)N[C@@H](CCCNC(=N)N)C(=O)N[C@@H](Cc1ccc(O)cc1)C(N)=O)[C@@H](C)O, also called compound No. 45) [4-Aminomethylbenzoyl-[Ala26, Ile28,31, Gly30]-PYY(25-36)]", 21),
]
